Hi there, I'd appreciate the recorded inhibition for every entry that follows.
- assay info: inhibitors of TNFa-induced NFkB p65 translocation, primary screen, imaging, HUVEC, MLSMR starter and 10KST1 sets (AID 438);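 also: compound added about 3h40 before a 20 min TNFalpha stimulation; signal is the nuclear over cytoplasmic p65 intensity ratio per well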
- condition context: HUVEC TNFa-induced p65 nuclear translocation; at 2 µM, hits give high values, 0% TNFa-plus-vehicle, 100% no-TNFa wells
Report only the number, with the unit % understood.

# inhibition (molecule: `CCOc1ncccc1C(=O)OCC(=O)Nc1ncc(C(F)(F)F)cc1Cl` ) is -12.1

# inhibition (molecule: `CCNC(=O)c1ccc(NS(=O)(=O)c2ccccc2)cc1` ) is -4.8

# inhibition (molecule: `CCNc1nc(NCC)n2c(SCc3nc4ccccc4c(=O)[nH]3)nnc2n1` ) is -3.9

# inhibition (molecule: `CCSc1nnc(NC(=O)CSc2ncccn2)s1` ) is 0.5

# inhibition (molecule: `CSc1cccc(NC(=O)C2CCN(S(C)(=O)=O)CC2)c1` ) is 3.5

# inhibition (molecule: `Nc1nc(C2C(=O)CCCC2=O)cs1` ) is -16.3

# inhibition (molecule: `O=S(=O)(NCCSc1ccccc1)c1cccs1` ) is -6.3

# inhibition (molecule: `Cc1ncoc1C(=O)Nc1cccc(Cl)c1C` ) is -14.2

# inhibition (molecule: Cc1ccc(C(=O)NC2CC3CCCC(C2)N3C(=O)NC2CCCCC2)cc1 (centres undefined) ) is -5

###

- assay info: blockers of RIG-like receptor reporter activation – cell-based, Sendai virus stimulus, luciferase, 10K MLSCN set, TLR/RLR signaling modifier project, primary screen (AID 602276);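 also: firefly luciferase from ISG56 promoter only with Renilla not read in this screen; 0% = Sendai virus plus DMSO and 100% = medium plus DMSO without virus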
- condition context: HEK293 RL24 IRF3 luciferase reporter, at 10 µM, hits give high values
readout kind: inhibition (%)
Report only the number, with the unit % understood.

# inhibition (compound: `Brc1ccc2[nH]ncc2c1` ) is 15.5

# inhibition (compound: COCCN1C(=O)C(=O)/C(=C(/O)c2ccc(OC(C)C)cc2)C1c1cccnc1 (stereo unspecified) ) is 17.3

# inhibition (compound: `Cc1nc2sc3c(c2c(=O)o1)CCC3` ) is 16.2

# inhibition (compound: `Cc1ccnc(NC(=O)Nc2ccc(F)cc2)c1` ) is -59.1

# inhibition (compound: `C=C(C)COc1ccc(-c2nc(N)ncc2Oc2ccccc2OCC)c(O)c1` ) is 17.7

# inhibition (compound: COc1ccccc1NC(=O)N1CCCC1C(=O)NC1CCCCC1 (stereo unspecified) ) is 15.6

# inhibition (compound: `CCCCCn1c(=O)[nH]c2cc(C(=O)NCCCN3CCCCC3)ccc2c1=O` ) is 7.49

# inhibition (compound: Cc1ccc(-c2nnn(CC(=O)NC3CC4CCC3C4)n2)cc1 (stereo unspecified) ) is 7.26

# inhibition (compound: CC(C(=O)N1CC2(C)CC1CC(C)(C)C2)N1C(=O)c2ccccc2C1=O (stereo unspecified) ) is 20.7

# inhibition (compound: O=C1CSC(c2cccc(F)c2)N1c1ccccc1F (stereo unspecified) ) is 15

# inhibition (compound: `Cc1cc(NCCCn2ccnc2)n2c(nc3ccccc32)c1C#N` ) is -6.75

# inhibition (compound: `CCOc1ccc2c(c1)sc1nc(C(=O)OC)cc(=O)n12` ) is 13.7

# inhibition (compound: `CC(C)(C)N(Cc1cc2ccccc2[nH]c1=O)C(=O)C1CCCCC1` ) is -3.62

# inhibition (compound: `O=C(NCc1ccc(F)cc1)c1cc(-c2ccco2)on1` ) is -17.1

# inhibition (compound: `Cc1cc(C)c2nc(N)sc2c1` ) is -28.1

# inhibition (compound: `COc1ccc(CCNS(=O)(=O)c2ccc3c(c2)OCCO3)cc1` ) is 14.6

# inhibition (compound: O=C(O)C1CC(=O)N(c2ccc(Br)cc2)C1 (stereo unspecified) ) is 2.88

# inhibition (compound: `O=C1CNCc2[nH]c3ccccc3c2N1c1ccccc1` ) is 17.2

# inhibition (compound: `CCOC(=O)c1nnn(-c2nonc2NC(C)=O)c1C` ) is 17.3

# inhibition (compound: Cc1ccc(NC(=O)C2CCCNC2=O)nc1 (stereo unspecified) ) is 2.07

# inhibition (compound: `CCOC(=O)c1c(NC(=O)Cn2c(C)nc3ccccc32)sc2c1CCC2` ) is 17.3

# inhibition (compound: `O=C(O)CCC(=O)Nc1ccc(S(=O)(=O)Nc2nccs2)cc1` ) is 21.6

# inhibition (compound: `COC(=O)c1c(N)nc(C)n1-c1ccc(OC)cc1` ) is 5.37

# inhibition (compound: `O=C(CNC(=O)c1cccs1)NCCN1CCN(c2ccccc2F)CC1` ) is 19.5

# inhibition (compound: COCCn1nnnc1C(c1cc2cc(C)cc(C)c2[nH]c1=O)N1CCN(c2ccccc2F)CC1 (stereo unspecified) ) is 16.8

# inhibition (compound: `COc1ccccc1C(=O)Nc1ccc(S(=O)(=O)N2CCOCC2)cc1` ) is 10.8

# inhibition (compound: `Cc1ncc([N+](=O)[O-])n1CCO` ) is 8

# inhibition (compound: `COC(=O)c1sc(S(=O)(=O)Nc2ccc3cn[nH]c3c2)c(C(=O)OC)c1C` ) is 13.4

# inhibition (compound: `Fc1ccccc1-c1nc(-c2ccccc2)no1` ) is -27.9

# inhibition (compound: `COc1ccc(CC(=O)NCc2ccccc2)cc1S(=O)(=O)N1CCOCC1` ) is 18.6

# inhibition (compound: `COCCNC(=O)c1ccc2c(c1)nc(C)n2-c1cccc(F)c1` ) is 15.5
